Biological target: AMP-activated protein kinase (AMPK) alpha-1/beta-1/gamma-1 (Homo sapiens, UniProt P54619+Q13131+Q9Y478)
Sequence (Q9Y478 whole entry, one chain of several, the tested form may be a part): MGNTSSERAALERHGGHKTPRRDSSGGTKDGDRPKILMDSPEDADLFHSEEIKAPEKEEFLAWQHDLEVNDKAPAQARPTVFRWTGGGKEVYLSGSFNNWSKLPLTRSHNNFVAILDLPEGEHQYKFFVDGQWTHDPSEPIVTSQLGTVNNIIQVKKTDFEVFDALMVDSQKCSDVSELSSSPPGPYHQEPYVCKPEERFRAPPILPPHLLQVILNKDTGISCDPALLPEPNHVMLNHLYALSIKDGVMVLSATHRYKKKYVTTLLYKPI
Sequence (Q13131 whole entry, one chain of several, the tested form may be a part): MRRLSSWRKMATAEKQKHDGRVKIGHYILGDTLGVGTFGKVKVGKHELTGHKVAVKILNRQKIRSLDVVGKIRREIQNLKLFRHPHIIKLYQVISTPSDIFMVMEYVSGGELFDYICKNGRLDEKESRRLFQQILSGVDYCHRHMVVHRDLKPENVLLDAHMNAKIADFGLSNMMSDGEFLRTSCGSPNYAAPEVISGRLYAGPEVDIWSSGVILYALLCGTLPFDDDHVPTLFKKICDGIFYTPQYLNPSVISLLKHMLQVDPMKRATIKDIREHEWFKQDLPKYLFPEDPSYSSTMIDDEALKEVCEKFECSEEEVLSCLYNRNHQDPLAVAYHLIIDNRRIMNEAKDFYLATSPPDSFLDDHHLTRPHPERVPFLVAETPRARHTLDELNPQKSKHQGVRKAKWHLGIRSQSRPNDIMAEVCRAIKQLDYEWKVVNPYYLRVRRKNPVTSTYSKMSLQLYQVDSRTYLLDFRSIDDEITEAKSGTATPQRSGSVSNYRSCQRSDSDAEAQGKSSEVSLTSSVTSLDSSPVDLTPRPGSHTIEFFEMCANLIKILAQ
Assay: Activation of human recombinant AMPK GST-tagged alpha1/Myc-tagged beta1/HA-tagged gamma1 expressed in African green monkey COS7 cells assessed as increase in SAMS peptide phosphorylation measured after 10 mins in presence of [gamma33P]ATP by scintillation counting method relative to control
Assay type: cell-based, COS-7
Quantity Name: EC50 (nM)
Number only, in nM; omit the unit.

Please list EC50 recorded for the molecule C(=N\c1cnc2ccccc2c1)/c1ccc2ccccc2n1
1800

* * *

Target: AMPK alpha1/beta2/gamma1 (Homo sapiens, UniProt O43741+P54619+Q13131)
Sequence (Q13131 whole entry, one chain of several, the tested form may be a part): as the sequence (Q13131 whole entry, one chain of several, the tested form may be a part) above
Assay: Activation of human recombinant AMPK alpha1/beta2/gamma1 expressed in African green monkey COS7 cells assessed as increase in biotinylated […] (1 to 120 residues) peptide phosphorylation at Ser-79 residue measured after 60 mins by Alphascreen assay
Quantity Name: pEC50
Field pEC50 (float): negative decimal logarithm of the concentration in molar.

Please list pEC50 recorded for the compound Oc1cccc(O)c1-c1ccc(-c2cc3nc(O[C@@H]4CO[C@H]5[C@@H]4OC[C@H]5O)[nH]c3cc2Cl)cc1
8.40

* * *

Target: 5'-AMP-activated protein kinase catalytic subunit alpha-2/beta-1/gamma-2 (Homo sapiens, UniProt P54646+Q9UGJ0+Q9Y478)
Sequence (Q9UGJ0 whole entry, one chain of several, the tested form may be a part): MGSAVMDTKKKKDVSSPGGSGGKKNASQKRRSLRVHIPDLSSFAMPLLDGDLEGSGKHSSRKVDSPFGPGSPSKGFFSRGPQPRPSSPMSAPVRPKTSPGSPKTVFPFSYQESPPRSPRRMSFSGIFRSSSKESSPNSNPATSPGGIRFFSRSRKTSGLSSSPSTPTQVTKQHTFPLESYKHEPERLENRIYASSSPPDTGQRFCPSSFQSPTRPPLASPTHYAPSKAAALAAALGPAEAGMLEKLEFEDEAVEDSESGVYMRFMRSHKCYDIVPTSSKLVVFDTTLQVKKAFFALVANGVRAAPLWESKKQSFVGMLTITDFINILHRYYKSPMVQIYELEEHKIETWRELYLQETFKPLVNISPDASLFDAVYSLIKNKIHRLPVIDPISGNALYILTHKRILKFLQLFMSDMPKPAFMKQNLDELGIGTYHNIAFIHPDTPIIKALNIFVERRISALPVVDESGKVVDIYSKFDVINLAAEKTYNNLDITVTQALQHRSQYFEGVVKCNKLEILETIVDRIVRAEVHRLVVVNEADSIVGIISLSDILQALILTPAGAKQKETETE
Sequence (Q9Y478 whole entry, one chain of several, the tested form may be a part): as the sequence (Q9Y478 whole entry, one chain of several, the tested form may be a part) above
Assay: Activation of recombinant human His-tagged AMPK alpha2 (2 to 552 residues)/beta1 (2 to 270 residues)/gamma2 (2 to 569 residues) expressed in baculovirus infected sf21 cells preincubated for 30 mins followed by biotinylated ACC-CREBp peptide substrate addition measured after 45 mins by HTRF assay
Quantity Name: EC50 (nM)
Number only, in nM; omit the unit.

Please list EC50 recorded for the compound COc1cc(C(O)=C2C(=O)Nc3cc(Cl)c(-c4ccc5c(ccn5C)c4)cc32)on1
0.7

* * *

Target: AMP-activated protein kinase (AMPK) alpha-1/beta-1/gamma-1 (Homo sapiens, UniProt P54619+Q13131+Q9Y478)
Experiment: Activation of human recombinant AMPK alpha1/beta1/gamma1 expressed in African green monkey COS7 cells assessed as increase in biotinylated […] (1 to 120 residues) peptide phosphorylation at Ser-79 residue measured after 60 mins by Alphascreen assay
Format: cell-based, COS-7
Quantity Name: EC50 (nM)
Number only, in nM; omit the unit.

Please list EC50 recorded for the compound Oc1cccc(O)c1-c1ccc(-c2cc3nc(O[C@@H]4CO[C@H]5[C@@H]4OC[C@H]5O)[nH]c3cc2Cl)cc1
11

* * *

Target: AMPK alpha2/beta2/gamma1 (Homo sapiens, UniProt O43741+P54619+P54646)
Sequence (P54646 whole entry, the tested form may be a part): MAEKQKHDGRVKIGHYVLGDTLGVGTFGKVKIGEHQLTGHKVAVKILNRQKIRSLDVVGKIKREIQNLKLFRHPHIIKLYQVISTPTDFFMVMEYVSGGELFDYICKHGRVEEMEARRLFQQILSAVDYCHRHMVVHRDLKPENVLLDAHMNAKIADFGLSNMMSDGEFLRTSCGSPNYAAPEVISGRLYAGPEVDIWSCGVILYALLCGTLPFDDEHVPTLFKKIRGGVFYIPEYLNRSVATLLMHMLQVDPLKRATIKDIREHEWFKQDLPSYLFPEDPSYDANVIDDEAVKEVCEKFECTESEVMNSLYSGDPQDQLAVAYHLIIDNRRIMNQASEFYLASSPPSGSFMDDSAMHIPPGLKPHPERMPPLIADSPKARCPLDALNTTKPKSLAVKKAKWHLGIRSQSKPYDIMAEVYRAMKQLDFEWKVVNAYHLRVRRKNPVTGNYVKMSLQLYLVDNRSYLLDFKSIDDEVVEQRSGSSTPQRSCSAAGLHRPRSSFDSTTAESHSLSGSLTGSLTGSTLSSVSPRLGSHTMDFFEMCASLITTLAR
Sequence (O43741 whole entry, the tested form may be a part): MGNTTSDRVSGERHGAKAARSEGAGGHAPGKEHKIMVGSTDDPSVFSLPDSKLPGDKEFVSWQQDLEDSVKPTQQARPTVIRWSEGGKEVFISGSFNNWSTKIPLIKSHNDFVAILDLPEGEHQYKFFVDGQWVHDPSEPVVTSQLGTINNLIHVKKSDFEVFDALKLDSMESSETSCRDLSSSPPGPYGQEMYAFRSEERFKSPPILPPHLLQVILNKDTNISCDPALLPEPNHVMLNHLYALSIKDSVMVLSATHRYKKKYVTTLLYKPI
Sequence (P54619 whole entry, the tested form may be a part): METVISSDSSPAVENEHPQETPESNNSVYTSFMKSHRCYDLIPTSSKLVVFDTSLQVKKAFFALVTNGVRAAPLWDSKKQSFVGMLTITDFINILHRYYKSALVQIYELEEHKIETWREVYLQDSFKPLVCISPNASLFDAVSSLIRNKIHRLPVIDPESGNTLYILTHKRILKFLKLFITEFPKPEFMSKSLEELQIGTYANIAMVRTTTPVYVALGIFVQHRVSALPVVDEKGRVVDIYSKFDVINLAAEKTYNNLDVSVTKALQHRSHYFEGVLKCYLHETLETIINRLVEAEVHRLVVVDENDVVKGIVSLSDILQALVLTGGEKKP
Experiment: Activation of human recombinant AMPK alpha2/beta2/gamma1 expressed in African green monkey COS7 cells assessed as increase in biotinylated […] (1 to 120 residues) peptide phosphorylation at Ser-79 residue measured after 60 mins by Alphascreen assay
Quantity Name: pEC50
Field pEC50 (float): negative decimal logarithm of the concentration in molar.

Please report the measured pEC50 for Oc1cccc(O)c1-c1ccc(-c2cc3nc(O[C@@H]4CO[C@H]5[C@@H]4OC[C@H]5O)[nH]c3cc2Cl)cc1 tested on AMPK alpha2/beta2/gamma1 (Homo sapiens, UniProt O43741+P54619+P54646).
8.70

* * *

Measured EC50 of individual entries
Biological target: AMP-activated protein kinase (AMPK) alpha-1/beta-1/gamma-1 (Homo sapiens, UniProt P54619+Q13131+Q9Y478)
Assay: Activation of full length human recombinant AMPK alpha1/beta1/gamma1 expressed in baculovirus infected sf21 cells using 5'-FAM-SAMS peptide substrate after 45 mins by fluorescence assay
Returns: string containing the number followed by the unit.

Test Smiles: CC(C)(O)c1ccc(-c2cc3nc(O[C@H]4CO[C@H](CO)[C@@H](O)C4)[nH]c3cc2Cl)cc1
EC50: 4 nM

Please list EC50 recorded for the molecule Cc1ccc(Oc2nc3nc(-c4ccc(N5CCCC5)cc4)c(Cl)cc3[nH]2)cc1C(=O)O
1 nM

* * *

Target: AMP-activated protein kinase (AMPK) alpha-1/beta-1/gamma-1 (Homo sapiens, UniProt P54619+Q13131+Q9Y478)
Test: Activation of human recombinant AMPK alpha1/beta1/gamma1 expressed in Escherichia coli BL21-CodonPlus (DE3)-RIPL using SAMS peptide after 10 mins in presence of [gamma33P]ATP by scintillation counting
Quantity Name: EC50 (nM)
Number only, in nM; omit the unit.

Please list EC50 recorded for the compound Cc1cc(-c2ccc(/C=C3\S/C(=N\c4ccc(Cl)c(C(=O)O)c4)NC3=O)o2)c([N+](=O)[O-])cc1C
300

* * *

Measured EC50 of individual entries
Biological target: AMP-activated protein kinase (AMPK) alpha-1/beta-1/gamma-1 (Homo sapiens, UniProt P54619+Q13131+Q9Y478)
Test: Activation of full length human His/GST-tagged AMPK alpha1/beta1/gamma1 expressed in baculovirus expression system after 1 hr by Z'Lyte assay
Number only, in nM; omit the unit.

Test Smiles: Cc1cc(-c2c(O)c3cc(-c4ccc(N(C)C)cc4)c(Cl)cc3[nH]c2=O)on1
Measurement Units: nM
EC50: 39.8

Please list EC50 recorded for the molecule Nc1nc(-c2ccc(-n3c(Cl)cc4[nH]c(=O)n(-c5cccc(C(=O)O)c5)c(=O)c43)cc2)cs1
631

* * *

Biological target: AMP-activated protein kinase, AMPK
Experiment: Activation of recombinant AMPK (unknown origin) after 30 mins in presence of [gamma33P]ATP by scintillation proximity assay
Quantity Name: pEC50
Field pEC50 (float): negative decimal logarithm of the concentration in molar.

Please list pEC50 recorded for the molecule O=C(O)c1ccc2c(c1)C1(CC1)CC(c1cc(Cl)ccc1F)N2 (stereo unspecified)
5.91

* * *

Molecular target: AMP-activated protein kinase (AMPK) alpha-1/beta-1/gamma-1 (Homo sapiens, UniProt P54619+Q13131+Q9Y478)
Assay: Activation of full length human recombinant N-terminal GST-tagged AMPK alpha1/beta1/gamma1 expressed in baculovirus infected High Five cells using NH2-HMRSAMSGLHLVKRR CONH2 substrate after 60 mins by ADP-Glo kinase assay
Design: species or system BTI-TN-5B1-4
Quantity Name: EC50 (nM)
Number only, in nM; omit the unit.

Please list EC50 recorded for the compound CS(=O)(=O)Nc1ccc(-c2ccc(-c3nc4nc(O[C@@H]5CO[C@H]6[C@@H]5OC[C@H]6O)[nH]c4cc3Cl)cc2)c(F)c1
3

* * *

Biological target: 5'-AMP-activated protein kinase subunit beta-2 (Homo sapiens, UniProt O43741)
Experiment: Activation of human recombinant AMPK beta2 expressed in African green monkey COS7 cells or baculovirus infected insect cells assessed as increase in biotinylated […] (1 to 120 residues) peptide phosphorylation at Ser-79 residue measured after 60 mins by Alphascreen assay
pEC50: −log10 of the molar value.
Quantity Name: pEC50

Please report the measured pEC50 for O=C(O)c1c[nH]c2ccc(-c3ccc(-c4c(O)cccc4O)cc3)cc12 tested on 5'-AMP-activated protein kinase subunit beta-2 (Homo sapiens, UniProt O43741).
> 5.30

These measurements were taken from ChEMBL document CHEMBL3856285.
